# target system: Beta Secretase enzyme (BACE) (Homo sapiens)
# Sequence (P56817 46-501): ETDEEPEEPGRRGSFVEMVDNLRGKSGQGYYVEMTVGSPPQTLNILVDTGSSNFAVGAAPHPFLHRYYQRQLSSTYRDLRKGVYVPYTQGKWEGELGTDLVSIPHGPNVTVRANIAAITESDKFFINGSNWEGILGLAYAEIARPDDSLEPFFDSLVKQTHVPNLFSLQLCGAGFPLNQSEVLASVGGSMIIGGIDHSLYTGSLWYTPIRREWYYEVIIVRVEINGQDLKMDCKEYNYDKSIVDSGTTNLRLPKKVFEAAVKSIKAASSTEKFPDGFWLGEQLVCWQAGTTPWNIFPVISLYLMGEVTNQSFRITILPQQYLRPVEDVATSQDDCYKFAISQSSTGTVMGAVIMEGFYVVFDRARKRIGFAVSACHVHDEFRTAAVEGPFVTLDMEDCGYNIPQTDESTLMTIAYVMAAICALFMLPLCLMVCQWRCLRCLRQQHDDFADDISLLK
# protocol notes: In vitro enzymatic BACE FRET (fluorescence resonance energy transfer) assay;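 also: fluorescence read after 1 h with 50 nM quenched peptide substrate spanning the BACE cleavage site, in pH 4.2 acetate buffer containing 10% DMSO and nonionic detergent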
# Assay type: biochemical
# condition context: BACE enzyme FRET assay; read-out: BACE1 FRET assay (IC50)
recorded endpoint: log10 IC50 (log10 of the value in nM)
Use the decimal logarithm of IC50 (nM).

Example entries and their recorded answers appear below.
COCC(=O)N[C@@H](Cc1ccc2c(c1)OCO2)[C@H](O)CN[C@H]1CC2(CCC2)Oc2ncc(CC(C)(C)F)cc21 :: 1.76
CO[C@H](C)C(=O)N[C@@H](Cc1ccc(Cl)c(F)c1)[C@H](O)CN[C@H]1CC2(CCC2)Oc2ncc(CC(C)(C)C(F)F)cc21 :: 1.18
CC(=O)NC(Cc1cccc(F)c1)C(O)CNC1CC2(CC(O)C2)Oc2cnccc21 (centres unmarked) :: 3.81
COCC(=O)N[C@@H](Cc1ccc(Cl)cc1)[C@H](O)CN[C@H]1CC2(CCC2)Oc2ncc(CC(C)(C)C)cc21 :: 0.33
CC(=O)N[C@@H](Cc1ccc(F)cc1)[C@H](O)CN[C@H]1CC2(CCC2)Oc2ccc(CC(C)(C)F)cc21 :: 2.31
COC(C)C(=O)NC(Cc1ccc2c(c1)OCO2)C(O)CNC1CC2(CC(O)C2)Oc2ncc(CC(C)C)cc21 (centres unmarked) :: 1.24
COCC(=O)NC(Cc1ccc2c(c1)OCO2)C(O)CNC1CC2(CC(O)C2)Oc2ncc(CC(C)C)cc21 (centres unmarked) :: 1.13
COCC(=O)N[C@@H](Cc1cccc(F)c1)[C@H](O)CN[C@H]1CC2(CC(F)(F)C2)Oc2ncc(CC(C)(F)F)cc21 :: 1.28
CO[C@H](C)C(=O)N[C@@H](Cc1ccc2c(c1)OCO2)[C@H](O)CN[C@H]1CC2(CCC2)Oc2ncc(CC(C)(C)CF)cc21 :: 1.38
COCC(=O)N[C@@H](Cc1ccc(F)cc1)[C@H](O)CN[C@H]1CC2(CCC2)Oc2c(F)cc(CC(C)(C)C)cc21 :: 0.91

// each listed compound needs a value for log10 IC50
1. CC(=O)N[C@@H](Cc1ccc(Cl)c(F)c1)[C@H](O)CN[C@H]1CC2(CCC2)Oc2ncc(CC(C)(C)C(F)F)cc21
2. COCC(=O)N[C@@H](Cc1ccc(F)cc1)[C@H](O)CN[C@H]1CC2(CCC2)Oc2ncc([C@@H](O)C(C)(C)C)cc21
3. CCNc1cc(Br)cc2c1OC1(CCC1)C[C@@H]2NC[C@@H](O)[C@H](Cc1cccc(F)c1)NC(=O)COC
4. COCC(=O)NC(Cc1ccc2c(c1)OCO2)C(O)CNC1CC2(CC(C)C2)Oc2ncc(CC(C)(C)C)cc21 (centres unmarked)

Completion:
1. 0.96
2. 2.94
3. 2.65
4. 1.26
